TEST TARGET: Dual specificity protein kinase CLK4 (Mus musculus, UniProt O35493)
Sequence (O35493 whole entry, the tested form may be a part): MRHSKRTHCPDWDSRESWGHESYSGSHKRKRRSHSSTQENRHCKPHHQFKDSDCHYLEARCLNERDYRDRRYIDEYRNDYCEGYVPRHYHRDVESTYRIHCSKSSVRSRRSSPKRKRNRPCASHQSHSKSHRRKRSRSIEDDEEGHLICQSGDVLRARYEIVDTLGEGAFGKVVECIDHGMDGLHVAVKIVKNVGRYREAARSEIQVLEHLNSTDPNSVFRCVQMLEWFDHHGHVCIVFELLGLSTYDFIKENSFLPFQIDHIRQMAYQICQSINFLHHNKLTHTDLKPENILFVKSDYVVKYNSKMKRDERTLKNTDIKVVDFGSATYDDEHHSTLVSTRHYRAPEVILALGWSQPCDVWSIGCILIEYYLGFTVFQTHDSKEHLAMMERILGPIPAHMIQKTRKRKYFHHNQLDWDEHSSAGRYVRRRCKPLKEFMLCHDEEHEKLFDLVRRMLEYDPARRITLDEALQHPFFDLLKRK
TEST SUMMARY: Inhibition of GST-fused mouse recombinant CLK4 expressed in Escherichia coli using GRSRSRSRSRSR peptide as substrate incubated for 30 mins in presence of ATP by scintillation counting method
pIC50: −log10 of the molar value.
Okay, here is how we bin by pIC50: lower segment (below 6), middle segment (6 to below 7), upper segment (7 or more)

O=C1NC(N2CCCC2)=N/C1=C\c1ccc2c(c1)OCO2 : middle segment
O=C1NC(Nc2ccc(N3CCNCC3)cc2)=N/C1=C\c1ccc2c(c1)OC=CO2 : middle segment
O=C1NC(Nc2ccccn2)=N/C1=C\c1ccc2c(c1)OCO2 : upper segment
O=C1NC(NC2CCNCC2)=N/C1=C\c1ccc2c(c1)OCO2 : middle segment
CCCSC1=N/C(=C\c2ccc3c(c2)OCO3)C(=O)N1C : upper segment
CCCSC1=N/C(=C\c2ccc3c(c2)OCO3)C(=O)N1 : upper segment
O=C1NC(Nc2cccc(F)c2)=N/C1=C\c1ccc2c(c1)OCO2 : upper segment
CN1CCN(c2ccc(NC3=N/C(=C\C4=COc5ccccc5O4)C(=O)N3)cc2)CC1 : upper segment
O=C1NC(Nc2ccccc2)=NC1Cc1ccc2c(c1)OCO2 (stereo not drawn) : lower segment
O=C1NC(N2CCN(c3ccc(F)cc3)CC2)=N/C1=C\c1ccc2c(c1)OCCO2 : lower segment
O=C1NC(Nc2ccc(O)c(F)c2)=N/C1=C\c1ccc2c(c1)OCO2 : upper segment
COc1ccc(/C=C2\N=C(Nc3ccccc3)NC2=O)cc1 : middle segment
NC1=N/C(=C\c2ccc3c(c2)OCO3)C(=O)N1 : upper segment
C/C(=C1/N=C(Nc2ccccc2)NC1=O)c1ccc2c(c1)OCO2 : lower segment
COc1ccc(/C=C2\N=C(Nc3ccccc3)NC2=O)cc1O : lower segment

###

TEST TARGET: Dual specificity protein kinase CLK1 (Mus musculus)
Sequence (P22518 whole entry, the tested form may be a part): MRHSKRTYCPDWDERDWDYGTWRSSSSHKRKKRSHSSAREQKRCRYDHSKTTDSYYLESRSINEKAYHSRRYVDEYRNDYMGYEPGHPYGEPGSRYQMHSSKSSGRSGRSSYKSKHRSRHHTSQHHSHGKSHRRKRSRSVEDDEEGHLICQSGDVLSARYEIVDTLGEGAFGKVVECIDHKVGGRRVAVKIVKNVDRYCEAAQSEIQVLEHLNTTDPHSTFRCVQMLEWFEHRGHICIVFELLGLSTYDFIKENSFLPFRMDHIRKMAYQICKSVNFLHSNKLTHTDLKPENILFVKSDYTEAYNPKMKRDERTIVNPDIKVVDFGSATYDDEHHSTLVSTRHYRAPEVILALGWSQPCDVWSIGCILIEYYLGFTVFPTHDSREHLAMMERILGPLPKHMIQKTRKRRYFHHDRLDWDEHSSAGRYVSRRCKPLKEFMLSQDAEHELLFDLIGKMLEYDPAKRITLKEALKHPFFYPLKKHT
TEST SUMMARY: Inhibition of GST-fused mouse recombinant CLK1 expressed in Escherichia coli using GRSRSRSRSRSR peptide as substrate incubated for 30 mins in presence of ATP by scintillation counting method
MEASUREMENT TYPE: IC50 (nM)

O=C1NC(N2CCN(c3ccc(F)cc3)CC2)=N/C1=C\c1ccc2c(c1)OCCO2 : 2100
CCCNC1=N/C(=C\c2ccc3c(c2)OCO3)C(=O)N1c1ccccc1 : 2000
O=C1NC(N2CCOCC2)=N/C1=C\c1ccc2c(c1)OCO2 : 430
CSC1=N/C(=C\c2ccc3c(c2)OCO3)C(=O)N1 : 73
O=C1NC(Nc2ccccc2)=N/C1=C\c1ccc(O)c(O)c1 : 210
O=C1NC(Nc2ccc(N3CCCCC3)cc2)=N/C1=C\c1ccc2c(c1)OCO2 : 4200
O=C1NC(NC2CCNCC2)=N/C1=C\c1ccc2c(c1)OCO2 : 220
COc1ccc(/C=C2\N=C(Nc3ccccc3)NC2=O)cc1O : 4300
CN1CCN(c2ccc(NC3=N/C(=C\C4=COc5ccccc5O4)C(=O)N3)cc2)CC1 : 17
COc1cc(/C=C2\N=C(Nc3ccccc3)NC2=O)ccc1O : 21
O=C1NC(Nc2ccccn2)=N/C1=C\c1ccc2c(c1)OCO2 : 72
Cc1ccc(NC2=N/C(=C\c3ccc4c(c3)OCO4)C(=O)N2)cc1 : 53
Cc1ccc(NC2=N/C(=C\c3ccc4c(c3)OCO4)C(=O)N2)c(C)c1 : 240
CN1C(=O)/C(=C/c2ccc3c(c2)OCO3)N=C1Nc1ccccc1 : 140
COc1cc(/C=C2\N=C(Nc3ccc(N4CCNCC4)cc3)NC2=O)ccc1O : 1200
CCCSC1=N/C(=C\c2ccc3c(c2)OCO3)C(=O)N1C : 64
O=C1N=C(Nc2ccccc2)S/C1=C\c1ccc2c(c1)OCO2 : 800
COc1cc(/C=C2\N=C(Nc3ccc(N4CCCCC4)cc3)NC2=O)ccc1O : 750
CN(C1=N/C(=C\c2ccc3c(c2)OCO3)C(=O)N1)c1ccccc1 : 310
COc1ccc(/C=C2\N=C(Nc3ccccc3)NC2=O)cc1 : 340

###

TEST TARGET: Serine/threonine-protein kinase pim-1 (Homo sapiens)
TEST SUMMARY: Inhibition of human recombinant Pim1 expressed in Escherichia coli using histone H1 as substrate incubated for 30 mins in presence of ATP by scintillation counting method
Listing of entries alongside the reported IC50.
MEASUREMENT TYPE: IC50 (nM)

O=C1NC(N2CCC(N3CCCCC3)CC2)=N/C1=C\c1ccc2c(c1)OCO2 : 7600
Cc1ccc(NC2=N/C(=C\c3ccc4c(c3)OCO4)C(=O)N2)c(C)c1 : 2500
O=C1NC(Nc2cccc(F)c2)=N/C1=C\c1ccc2c(c1)OCO2 : 1200
CCSC1=N/C(=C\c2ccc3c(c2)OCO3)C(=O)N1 : 340

###

TEST TARGET: Serine/threonine-protein kinase pim-1 (Homo sapiens, UniProt P11309)
Sequence (P11309 whole entry): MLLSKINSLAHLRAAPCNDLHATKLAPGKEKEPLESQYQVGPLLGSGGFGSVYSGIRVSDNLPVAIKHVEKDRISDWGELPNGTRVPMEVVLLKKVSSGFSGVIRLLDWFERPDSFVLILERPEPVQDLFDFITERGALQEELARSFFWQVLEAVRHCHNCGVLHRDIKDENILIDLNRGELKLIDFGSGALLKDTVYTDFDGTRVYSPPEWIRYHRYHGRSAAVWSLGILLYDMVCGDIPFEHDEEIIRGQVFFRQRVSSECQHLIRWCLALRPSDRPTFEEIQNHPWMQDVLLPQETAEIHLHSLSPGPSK
TEST SUMMARY: Inhibition of human recombinant Pim1 expressed in Escherichia coli using histone H1 as substrate incubated for 30 mins in presence of ATP by scintillation counting method
Criterion: IC50 strictly under 1000 nM. Met: y. Not met: n.

O=C1NC(Nc2ccccc2)=N/C1=C\c1ccc2c(c1)CCCO2 : n
COc1cc(/C=C2\N=C(Nc3ccccc3)NC2=O)ccc1O : y
CCCCCCc1ccc(NC2=N/C(=C\c3ccc(O)c(OC)c3)C(=O)N2)cc1 : n
CNC1=N/C(=C\c2ccc3c(c2)OCO3)C(=O)N1 : n
O=C1NC(Nc2ccccc2)=N/C1=C\c1ccc2c(c1)CCO2 : n
O=C1NC(Nc2ccc(O)c(F)c2)=N/C1=C\c1ccc2c(c1)OCO2 : y
O=C1NC(NC2CCNCC2)=N/C1=C\c1ccc2c(c1)OCO2 : n
O=C1NC(Nc2ccccc2)=N/C1=C\c1cccc(F)c1 : n
O=C1N=C(Nc2ccccc2)S/C1=C\c1ccc2c(c1)OCO2 : n
CCCSC1=N/C(=C\c2ccc3c(c2)OCO3)C(=O)N1 : y
CCCCCOc1ccc(NC2=N/C(=C\c3ccc4c(c3)OCO4)C(=O)N2)cc1 : n

###

TEST TARGET: Casein kinase 2 (Homo sapiens, UniProt P67870+P68400+P19784+Q8NEV1)
TEST SUMMARY: Inhibition of human recombinant CK2 using RRRDDDSDDD peptide as substrate incubated for 30 mins in presence of ATP by scintillation counting method
Assay type: protein assay
MEASUREMENT TYPE: IC50 (µM)

CCCSC1=N/C(=C\c2ccc3c(c2)OCO3)C(=O)N1 : 1.7
O=C1NC(Nc2cccc(F)c2)=N/C1=C\c1ccc2c(c1)OCO2 : 0.8
O=C1NC(Nc2ccc(N3CCNCC3)cc2)=N/C1=C\c1ccc2c(c1)OC=CO2 : 3
CNC1=N/C(=C\c2ccc3c(c2)OCO3)C(=O)N1 : 1.8
COc1cc(/C=C2\N=C(Nc3ccccc3)NC2=O)ccc1O : 0.62
CCCNC1=N/C(=C\c2ccc3c(c2)OCO3)C(=O)N1 : 1.4
O=C1NC(Nc2ccc(O)c(F)c2)=N/C1=C\c1ccc2c(c1)OCO2 : 0.32
CCNC1=N/C(=C\c2ccc3c(c2)OCO3)C(=O)N1 : 0.41
O=C1N=C(Nc2ccccc2)S/C1=C\c1ccc2c(c1)OCO2 : 2.5
O=C1NC(N2CCOCC2)=N/C1=C\c1ccc2c(c1)OCO2 : 1.1
O=C1NC(N2CCCC2)=N/C1=C\c1ccc2c(c1)OCO2 : 1.2
Cc1ccc(NC2=N/C(=C\c3ccc4c(c3)OCO4)C(=O)N2)cc1 : 1.7
CN1CCN(c2ccc(NC3=N/C(=C\C4=COc5ccccc5O4)C(=O)N3)cc2)CC1 : 0.45
O=C1NC(Nc2ccccc2)=N/C1=C\c1ccc2c(c1)CCO2 : 1.1
O=C1NC(Nc2ccccc2)=N/C1=C\c1ccc2c(c1)OCO2 : 0.51
O=C1NC(Nc2ccc(N3CCNCC3)cc2)=N/C1=C\c1ccc2c(c1)OCO2 : 2.3
Cc1ccc(C)c(NC2=N/C(=C\c3ccc4c(c3)OCO4)C(=O)N2)c1 : 1.6
CSC1=N/C(=C\c2ccc3c(c2)OCO3)C(=O)N1 : 2.2
O=C1NC(Nc2ccc(F)cc2)=N/C1=C\c1ccc2c(c1)OCO2 : 8.8
O=C1NC(Nc2ccccc2)=N/C1=C\c1ccc(F)cc1 : 3.2
O=C1NC(N2CCCCC2)=N/C1=C\c1ccc2c(c1)OCO2 : 0.76
O=C1NC(Nc2ccccc2)=N/C1=C\c1ccc(O)c(O)c1 : 1.5
CCSC1=N/C(=C\c2ccc3c(c2)OCO3)C(=O)N1 : 0.6
NC1=N/C(=C\c2ccc3c(c2)OCO3)C(=O)N1 : 0.93
CN(C1=N/C(=C\c2ccc3c(c2)OCO3)C(=O)N1)c1ccccc1 : 2.1

###

Quick record of IC50 values for Dual specificity tyrosine-phosphorylation-regulated kinase 1B (Homo sapiens).
MEASUREMENT TYPE: IC50 (nM)

COc1cc(/C=C2\N=C(Nc3ccc(N4CCCCC4)cc3)NC2=O)ccc1O : 410
CCCCCOc1ccc(NC2=N/C(=C\c3ccc4c(c3)OCO4)C(=O)N2)cc1 : 2300
O=C1NC(Nc2ccc(N3CCNCC3)cc2)=N/C1=C\c1ccc2c(c1)OCO2 : 950

Just for reference, ChEMBL document CHEMBL5126517 is where these values come from.
